EXPERIMENTAL_DETAILS: Antitumor activity in vivo against the 6C3HED lymphosarcoma, dosed for 8 days at 300 mg/kg
ASSAY_SETUP: Mus musculus, 192 h
Items are presented alongside their recorded inhibition in vivo at 300 mg/kg.
Just the number please, in %, no unit attached.

Observe how each entry below is paired with its result.
> print(dat)
                              smiles.string                    endpoint.name  value.measured
1  O=C(Nc1ccc(Cl)cc1)NS(=O)(=O)c1cccc2ccccc12  inhibition in vivo at 300 mg/kg              29
2   Cc1ccc(S(=O)(=O)NC(=O)Nc2cccc(Cl)c2)cc1  inhibition in vivo at 300 mg/kg              13
3  Cc1ccc(S(=O)(=O)NC(=O)Nc2ccc(OC(F)F)cc2)cc1  inhibition in vivo at 300 mg/kg              15

# compound Cc1ccc(S(=O)(=O)NC(=O)Nc2ccc(Cl)cc2C(F)(F)F)cc1 ; its inhibition in vivo at 300 mg/kg = 24

The measured values listed here are drawn from ChEMBL document CHEMBL1124898.
